assay-method-text: compounds displacing fluorescent DNA intercalator, primary screen, artefact control for HCV NS3 helicase inhibitor project, biochemical, FID fluorescence (AID 1845);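 note: 0% = vehicle and 100% = reference compound; higher means more ethidium bromide displaced from hairpin DNA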
measurement-setup: DNA fluorescent intercalator displacement, at 7.9 µM
Among all 290,000 compounds or so, about 490 (0.17%) were called active. Cut-off read from the data, not from the text of the source: active = inhibition above about 37%; inactive = the rest. The sample holds actives, similar compounds and a random draw of the others, so the mix is not that of the screen.
Give one outcome, nothing more. List: active, inactive

- CS(=O)(=O)N(CC(=O)N/N=C/c1ccccn1)c1ccc(Oc2ccccc2)cc1: inactive
- Cc1ccc(C(C(=O)NCC2CCCO2)N(C(=O)c2snc(C(N)=O)c2N)c2ccc(C(C)C)cc2)o1 (stereo not given): inactive
- Cc1cnc(C)c(N2CCN(C(=O)C3CCC(=O)N(CCc4cccc(F)c4)C3)CC2)n1 (stereo not given): inactive
- Cc1ccc(Nc2c3c(nc4ccccc24)CCC3)cc1: inactive
- Cc1cc(=O)oc2c3c(cc(OCC(=O)NCCC(=O)N[C@@H](C)C(=O)O)c12)OC(C)(C)CC3: inactive

[ask] Could you check what this test reported for O=C(CNC(=O)OCc1ccccc1)NC1CCCCNC1=O (stereo not given) ?
[reply] inactive

[ask] Could you check what this test reported for O=S1(=O)N=C(N(CCO)/N=C/c2ccccc2F)c2ccccc21 ?
[reply] inactive

[ask] Could you check what this test reported for CCN(C(=O)CN1C(=O)/C(=C/c2ccc(F)cc2)SC1=S)C1CCS(=O)(=O)C1 (stereo not given) ?
[reply] inactive

[ask] Could you check what this test reported for CC(=O)Nc1ccc(Nc2c3ccccc3nc3ccccc23)cc1 ?
[reply] active

[ask] Could you check what this test reported for COc1ccc(C(=O)COC(=O)Cn2cnc3c2c(=O)n(C)c(=O)n3C)c(OC)c1 ?
[reply] inactive

----------
assay-method-text: compounds displacing fluorescent DNA intercalator, primary screen, artefact control for HCV NS3 helicase inhibitor project, biochemical, FID fluorescence (AID 1845);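 note: 0% = vehicle and 100% = reference compound; higher means more ethidium bromide displaced from hairpin DNA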
measurement-setup: DNA fluorescent intercalator displacement, at 7.9 µM, stronger effect = higher value
Out of some 290,000 compounds screened, about 490 (0.17%) were called active. The list comes from a sample in which actives are over-represented; it also holds close analogues and randomly drawn compounds.
Readings of inhibition for the listed compounds

Examples from the recorded data:
* CCCCc1nc(SCC(=O)Nc2nnc(C(C)C)s2)n[nH]1 | -16.5% (inactive)
* O=C(CCN1C(=O)[C@H]2CC=CC[C@H]2C1=O)NCc1nc(-c2ccccc2)no1 | -33.7% (inactive)
* CCc1ccc(-c2cc(C(=O)NN3CCN(C)CC3)c3ccccc3n2)cc1 | 16.5% (inactive)
* CC(=N\NC(=O)c1cc(Br)ccc1O)/C(=N/O)C(=O)Nc1ccccc1 | -11.2% (inactive)
* CC(NC(=O)CNC(=O)Cc1cccc2ccccc12)c1ccc(S(N)(=O)=O)cc1 (stereo unspecified) | -27.1% (inactive)

# context switch: different compound, same inhibition
response.value for Cc1ccc(S(=O)(=O)N(C)C)cc1NC(=O)C1Cc2ccccc2CN1C(=O)c1ccco1 (stereo unspecified) (field: inhibition) = -29.3% (inactive)

----------
assay-method-text: compounds displacing fluorescent DNA intercalator, primary screen, artefact control for HCV NS3 helicase inhibitor project, biochemical, FID fluorescence (AID 1845);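 note: 0% = vehicle and 100% = reference compound; higher means more ethidium bromide displaced from hairpin DNA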
measurement-setup: DNA fluorescent intercalator displacement, at 7.9 µM, stronger effect = higher value
Among all 290,000 compounds or so, about 490 (0.17%) were called active. This is one part of a sample in which actives are shown more often than they occur.
measured-endpoint: inhibition (%)
Reply numerically in %, unit not repeated.

Examples from the recorded data:
- CC(CCc1ccc(O)cc1)NCc1ccc(Cl)cc1Cl (configuration not stated): 12.2
- COc1cccc(NC(=O)N2C3CCCC2CC(NC(C)=O)C3)c1 (configuration not stated): -3.46
- Nc1nc(Nc2ccccc2)nc(NCCO)c1[N+](=O)[O-]: -6.38

# context switch: different compound, same inhibition
response.value for CCCCCC1CC(COc2ccccc2)OC1=O (configuration not stated) (field: inhibition) = -26.6
